Listed molecules paired with reported melting point
reportedEndpoint: melting point

structureAsSmiles | reportedEndpoint | endpointValue
CCOc1ncc(-c2c3ccccc3nn2-c2ccc(S(C)(=O)=O)cc2)cn1 | melting point | 217 to 219 °C
NS(=O)(=O)c1ccc(-n2nc3ccccc3c2-c2cccc(F)c2)cc1 | melting point | > 250 °C
CCOc1ccc(-c2c3ccccc3nn2-c2ccc(S(C)(=O)=O)cc2)cn1 | melting point | 147 to 149 °C
CS(=O)(=O)c1ccc(-n2nc3ccccc3c2-c2ccc(F)nc2)cc1 | melting point | 216 to 218 °C
CCOc1ccc(-c2c3ccccc3nn2-c2ccc(S(C)(=O)=O)cc2)cc1F | melting point | 138 to 140 °C
CS(=O)(=O)c1ccc(-n2nc3ccccc3c2-c2ccc(F)nc2F)cc1 | melting point | 84 to 86 °C
COc1cncc(-c2c3ccccc3nn2-c2ccc(S(C)(=O)=O)cc2)c1 | melting point | 215 to 217 °C
COc1ccc(-c2c3ccccc3nn2-c2ccc(S(C)(=O)=O)cc2)cn1 | melting point | 146 to 148 °C
CCOc1ccc(-c2c3ccccc3nn2-c2ccc(S(C)(=O)=O)cc2)cc1C(F)(F)F | melting point | 196 to 198 °C
CS(=O)(=O)c1ccc(-c2c3ccccc3nn2-c2ccc(F)cc2)cc1 | melting point | 198 to 200 °C
Cc1ccc(-c2c3ccccc3nn2-c2ccc(S(C)(=O)=O)cc2)cc1F | melting point | 149 to 151 °C

----------
In this section we review reported melting point values for a set of compounds.

structureAsSmiles | melting point
CS(=O)(=O)c1ccc(-n2nc3ccccc3c2-c2ccc(Cl)c(C(F)(F)F)c2)cc1 | 197 to 199 °C
CS(=O)(=O)c1ccc(-n2nc3ccccc3c2-c2ccc(F)cc2)cc1 | 173 to 175 °C
CS(=O)(=O)c1ccc(-n2nc3cccnc3c2-c2ccc(F)cc2)cc1 | 219 to 221 °C
NS(=O)(=O)c1ccc(-n2nc3ccccc3c2-c2ccc([N+](=O)[O-])cc2)cc1 | 221 to 223 °C

----------
Biological target: human recombinant COX-2 (Homo sapiens, UniProt P35354)
Construct: purchased Cayman Chemical 700100, No. 760111
Sequence (P35354 18-604): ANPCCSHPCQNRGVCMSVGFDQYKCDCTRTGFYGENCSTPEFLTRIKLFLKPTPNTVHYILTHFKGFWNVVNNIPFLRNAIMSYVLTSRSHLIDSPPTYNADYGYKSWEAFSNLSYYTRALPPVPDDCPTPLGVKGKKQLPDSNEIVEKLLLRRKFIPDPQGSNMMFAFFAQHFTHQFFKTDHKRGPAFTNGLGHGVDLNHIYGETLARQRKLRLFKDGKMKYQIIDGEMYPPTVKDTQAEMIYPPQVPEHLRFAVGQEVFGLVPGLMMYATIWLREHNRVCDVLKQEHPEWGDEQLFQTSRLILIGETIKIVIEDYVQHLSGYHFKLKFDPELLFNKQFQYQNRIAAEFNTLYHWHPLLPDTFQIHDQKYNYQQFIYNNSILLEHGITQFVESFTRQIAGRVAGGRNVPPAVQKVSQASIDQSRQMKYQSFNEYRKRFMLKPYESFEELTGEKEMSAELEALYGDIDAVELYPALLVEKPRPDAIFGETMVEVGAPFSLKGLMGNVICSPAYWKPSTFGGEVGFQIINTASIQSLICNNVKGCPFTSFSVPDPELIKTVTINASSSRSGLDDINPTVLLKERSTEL
Assay: COX Inhibitor Screening Kit (Cayman), fluorescence-based, COX-2 inhibition
Assay type: biochemical
Settings: means of triplicates, except DuP-697 (n = 27) and Celecoxib (n = 5)
reportedEndpoint: IC50 (µM)

structureAsSmiles | comparisonSymbol | endpointValue
CCOc1ccc(-c2c3ccccc3nn2-c2ccc(S(C)(=O)=O)cc2)cn1 | = | 4.46
COc1cncc(-c2c3ccccc3nn2-c2ccc(S(C)(=O)=O)cc2)c1 | > | 25
CS(=O)(=O)c1ccc(-n2nc3ccccc3c2-c2ccc(F)nc2F)cc1 | > | 25
CS(=O)(=O)c1ccc(-n2nc3ncccc3c2-c2ccc(F)cc2)cc1 | = | 4.75
COc1ccc(-c2c3ccccc3nn2-c2ccc(S(C)(=O)=O)cc2)cn1 | = | 2.98
CS(=O)(=O)c1ccc(-n2nc3ccccc3c2-c2ccc(F)nc2)cc1 | > | 25
CCOc1ncc(-c2c3ccccc3nn2-c2ccc(S(C)(=O)=O)cc2)cn1 | > | 25
NS(=O)(=O)c1ccc(-n2nc3ccccc3c2-c2cccc(F)c2)cc1 | = | 4.2
Cc1ccc(-c2c3ccccc3nn2-c2ccc(S(C)(=O)=O)cc2)cc1F | = | 1.03
CS(=O)(=O)c1ccc(-c2c3ccccc3nn2-c2ccc(F)cc2)cc1 | = | 2.3
CCOc1ccc(-c2c3ccccc3nn2-c2ccc(S(C)(=O)=O)cc2)cc1F | > | 25
CS(=O)(=O)c1ccc(-n2nc3cnccc3c2-c2ccc(F)cc2)cc1 | = | 4.42
CS(=O)(=O)c1ccc(-n2nc3ccccc3c2-c2ccc(F)cc2)cc1 | = | 1.46
CS(=O)(=O)c1ccc(-n2nc3ccccc3c2-c2ccc(Cl)c(C(F)(F)F)c2)cc1 | = | 1.1
CS(=O)(=O)c1ccc(-n2nc3cccnc3c2-c2ccc(F)cc2)cc1 | > | 25
